target: Pim-3 (Homo sapiens); construct: His6-labelled recombinant full-length human Pim-1, Pim-2 or Pim-3 protein; His6; made in house; experiment: TR-FRET assay, Pim-3 kinase (phosphorylation of Bad Ser112); format: biochemical; conditions: TR-FRET; ATP 40 μM; read-out: IC50 Pim3
endpoint: IC50

Known results for molecules:
Fc1cnc2[nH]c3cnc(-c4cccnc4)cc3c2c1N1CCN(CCCN2CCCCC2)CC1; 1 to 100 nM
Fc1cnc2[nH]c3cnc(-c4cccnc4)cc3c2c1/C=C/C1CC1; 100 to 1000 nM
c1cncc(-c2cc3c(cn2)[nH]c2ncc(-c4ccc(OCCCN5CCCCC5)cc4)cc23)c1; 1 to 100 nM

**Q:** Name the recorded IC50 of the molecule listed here: c1cncc(-c2cc3c(cn2)[nH]c2ncc(-c4ccc(OCCn5ccnc5)cc4)cc23)c1
**A:** 1 to 100 nM

**Q:** Specify IC50 for COc1cc(OC)cc(-c2c(F)cnc3[nH]c4cnc(-c5cccnc5)cc4c23)c1 and stop.
**A:** 100 to 1000 nM

**Q:** Please indicate IC50 recorded for Fc1cc(F)cc(-c2c(F)cnc3[nH]c4cnc(-c5cccnc5)cc4c23)c1
**A:** 100 to 1000 nM

**Q:** Quick one: give measured IC50 for CN(C)CCCOc1ccc(-c2c(F)cnc3[nH]c4cnc(-c5cccnc5)cc4c23)cc1
**A:** 1 to 100 nM

**Q:** Please indicate IC50 recorded for CCOC(=O)c1cnc2[nH]c3cnc(-c4cccnc4)cc3c2c1
**A:** 100 to 1000 nM

**Q:** Supply recorded IC50 for Cn1cc(-c2cc3c(cn2)[nH]c2ncccc23)cn1 here.
**A:** 100 to 1000 nM

###

Below, each of the molecules is paired with its reported IC50 value.
molecular target: Pim-1 (Homo sapiens, UniProt P11309); construct: His6-labelled recombinant full-length human Pim-1, Pim-2 or Pim-3 protein; His6; made in house; assay: TR-FRET assay, Pim-1 kinase (phosphorylation of Bad Ser112); assay type: biochemical; settings: TR-FRET; ATP 40 μM; read-out: IC50 Pim1
Sequence (P11309 whole entry): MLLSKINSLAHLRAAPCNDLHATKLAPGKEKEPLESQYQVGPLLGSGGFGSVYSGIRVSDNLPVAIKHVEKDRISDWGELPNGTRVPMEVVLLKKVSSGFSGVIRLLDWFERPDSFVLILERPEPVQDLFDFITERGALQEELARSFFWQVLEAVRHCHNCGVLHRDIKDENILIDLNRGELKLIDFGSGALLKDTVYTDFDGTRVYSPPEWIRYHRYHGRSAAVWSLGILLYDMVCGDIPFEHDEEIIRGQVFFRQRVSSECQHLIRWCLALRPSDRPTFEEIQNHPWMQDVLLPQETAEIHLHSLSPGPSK

CN1CCN(c2ccc(-c3cnc4[nH]c5cnc(-c6cccnc6)cc5c4c3)cc2)CC1; 1 to 100 nM

**Q:** For the molecule CC(C)Cn1cc(-c2cnc3[nH]c4cnc(-c5cccnc5)cc4c3c2)cn1 , give its reported IC50.
**A:** 1 to 100 nM

**Q:** Supply IC50 value. Item: Cn1nccc1-c1c(F)cnc2[nH]c3cnc(-c4cccnc4)cc3c12
**A:** 1000 to 5000 nM

**Q:** Supply IC50 value. Item: CN(C)CCCN(c1ccc(-c2c(F)cnc3[nH]c4cnc(-c5cccnc5)cc4c23)cc1)S(C)(=O)=O
**A:** 1 to 100 nM

**Q:** // fetch IC50 given entry CS(=O)(=O)Nc1cccc(-c2c(F)cnc3[nH]c4cnc(-c5cccnc5)cc4c23)c1
**A:** 1 to 100 nM

**Q:** Please supply the value of reported IC50 for the item O=C(c1ccccc1)c1c(F)cnc2[nH]c3cnc(-c4cccnc4)cc3c12
**A:** 1 to 100 nM

**Q:** Please give the documented IC50 of Fc1cnc2[nH]c3cnc(-c4cccnc4)cc3c2c1N1CCCCC1
**A:** 1 to 100 nM

**Q:** Give me measured IC50, please, for this molecule: COc1ncc(-c2c(F)cnc3[nH]c4cnc(-c5cccnc5)cc4c23)cn1
**A:** 100 to 1000 nM

###

Biological target: Pim-3 (Homo sapiens)
Construct: His6-labelled recombinant full-length human Pim-1, Pim-2 or Pim-3 protein; His6; made in house
Assay: TR-FRET assay, Pim-3 kinase (phosphorylation of Bad Ser112)
Assay type: biochemical
Details: TR-FRET; ATP 40 μM; read-out: IC50 Pim3
Protocol: In order to determine the inhibition of activation of Pim kinases, the compounds of the invention are tested in accordance with a routinely used in vitro TR-FRET assay (Time-Resolved Fluorescence Resonance Energy Transfer). […] For the assay, the following reagents are used: […]
pIC50: −log10 of the molar value.
Each entry below lists one item and its recorded pIC50 value.

CC(C)(C)OC(=O)N1CCN(c2cccc(-c3cnc4[nH]c5cnc(-c6cccnc6)cc5c4c3)c2)CC1; 6.00 to 7.00
CCN1CCN(C(C)(C)C#Cc2c(F)cnc3[nH]c4cnc(-c5cccnc5)cc4c23)CC1; 7.00 to 9.00
CS(=O)(=O)c1cccc(-c2c(F)cnc3[nH]c4cnc(-c5cccnc5)cc4c23)c1; 5.30 to 6.00
c1cncc(-c2cc3c(cn2)[nH]c2ncc(N4CCNCC4)cc23)c1; 7.00 to 9.00
Fc1cnc2[nH]c3cnc(-c4cccnc4)cc3c2c1N1CCC(N2CCCCC2)CC1; 6.00 to 7.00

**Q:** Annotate the molecule CS(=O)(=O)Nc1cccc(-c2c(F)cnc3[nH]c4cnc(-c5cccnc5)cc4c23)c1 with its measured pIC50.
**A:** 6.00 to 7.00

**Q:** Find the measured pIC50 of OCCN1CCN(c2c(F)cnc3[nH]c4cnc(-c5cccnc5)cc4c23)CC1 and report it.
**A:** 6.00 to 7.00

**Q:** Return pIC50 for the following molecule: c1cncc(-c2cc3c(cn2)[nH]c2ncc(-c4ccc(N5CCN(C6CC6)CC5)cc4)cc23)c1
**A:** 7.00 to 9.00

###

target: Pim-2 (Homo sapiens); construct: His6-labelled recombinant full-length human Pim-1, Pim-2 or Pim-3 protein; His6; made in house; test: TR-FRET assay, Pim-2 kinase (phosphorylation of Bad Ser112); assay type: biochemical; conditions: TR-FRET; ATP 40 μM; read-out: IC50 Pim2
# IC50 values compiled below

Examples with answers:
Brc1cnc2[nH]c3cnc(-c4cccnc4)cc3c2c1; 1000 to 5000 nM
CC(C)(O)C#Cc1c(F)cnc2[nH]c3cnc(-c4cccnc4)cc3c12; 1000 to 5000 nM

**Q:** Please indicate recorded IC50 of Cc1cscc1-c1c(F)cnc2[nH]c3cnc(-c4cccnc4)cc3c12 measured with Pim-2 (Homo sapiens).
**A:** 1000 to 5000 nM

**Q:** Fill in: IC50 on Pim-2 (Homo sapiens), entry CN(c1ccc(-c2c(F)cnc3[nH]c4cnc(-c5cccnc5)cc4c23)cc1)S(C)(=O)=O
**A:** 100 to 1000 nM

**Q:** Give reported IC50 for c1cncc(-c2cc3c(cn2)[nH]c2ncc(-c4ccnc(N5CCNCC5)c4)cc23)c1 (Pim-2 (Homo sapiens))
**A:** > 5000 nM

**Q:** Write down the reported IC50 (system: Pim-2 (Homo sapiens)) of O=C(c1c(F)cnc2[nH]c3cnc(-c4cccnc4)cc3c12)N1CCOCC1
**A:** > 5000 nM

**Q:** Report its IC50 with Pim-2 (Homo sapiens) as the test system: OCCN1CCN(c2c(F)cnc3[nH]c4cnc(-c5cccnc5)cc4c23)CC1
**A:** 1000 to 5000 nM

**Q:** Check Pim-2 (Homo sapiens) data and give IC50 for CC(C)COC(=O)c1cnc2[nH]c3cnc(-c4cccnc4)cc3c2c1 .
**A:** > 5000 nM

**Q:** Using Pim-2 (Homo sapiens) as the test system, report measured IC50 of Fc1cnc2[nH]c3cnc(-c4cccnc4)cc3c2c1-c1ccc(OCCN2CCOCC2)cc1 .
**A:** 1000 to 5000 nM

**Q:** Report its IC50 with Pim-2 (Homo sapiens) as the test system: Fc1cnc2[nH]c3cnc(-c4cccnc4)cc3c2c1C1CC1
**A:** 1000 to 5000 nM

**Q:** Lab note: Pim-2 (Homo sapiens) assay, enter IC50 for Cc1c(F)cnc2[nH]c3cnc(-c4cccnc4)cc3c12 here
**A:** > 5000 nM

**Q:** Please respond with reported IC50 (system Pim-2 (Homo sapiens)) for CN(C)CC(=O)N1CCN(c2ccc(-c3cnc4[nH]c5cnc(-c6cccnc6)cc5c4c3)cc2)CC1 .
**A:** 100 to 1000 nM

**Q:** With Pim-2 (Homo sapiens) as the test system, provide measured IC50 for this compound: Clc1cnc2[nH]c3cnc(-c4cccnc4)cc3c2c1
**A:** 1000 to 5000 nM

**Q:** // fetch IC50; item: CS(=O)(=O)NCc1cccc(-c2c(F)cnc3[nH]c4cnc(-c5cccnc5)cc4c23)c1 ; system: Pim-2 (Homo sapiens)
**A:** 1000 to 5000 nM

###

molecular target: Pim-2 (Homo sapiens, UniProt Q9P1W9); construct: His6-labelled recombinant full-length human Pim-1, Pim-2 or Pim-3 protein; His6; made in house; experiment: TR-FRET assay, Pim-2 kinase (phosphorylation of Bad Ser112); type: biochemical; settings: TR-FRET; ATP 40 μM; read-out: IC50 Pim2
Sequence (Q9P1W9 whole entry): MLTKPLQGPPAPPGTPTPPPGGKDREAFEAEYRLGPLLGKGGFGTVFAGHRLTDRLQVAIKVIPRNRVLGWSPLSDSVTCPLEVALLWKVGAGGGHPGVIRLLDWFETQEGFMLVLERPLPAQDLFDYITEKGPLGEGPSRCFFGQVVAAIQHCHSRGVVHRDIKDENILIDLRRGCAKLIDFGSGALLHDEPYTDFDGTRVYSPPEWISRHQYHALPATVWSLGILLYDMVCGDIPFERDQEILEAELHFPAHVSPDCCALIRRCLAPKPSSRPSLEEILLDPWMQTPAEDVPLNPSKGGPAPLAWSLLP
endpoint: IC50

**Q:** Supply measured IC50 of COc1c(F)cnc2[nH]c3cnc(-c4cccnc4)cc3c12 in your reply.
**A:** > 5 µM

**Q:** Consider the molecule CC(C)(O)c1cnc2[nH]c3cnc(-c4cccnc4)cc3c2c1 . State its measured IC50.
**A:** 1 to 5 µM

**Q:** Give the measured IC50 for Nc1cnc2[nH]c3cnc(-c4cccnc4)cc3c2c1
**A:** > 5 µM

**Q:** Provide IC50 value for the following molecule: OCc1cccc(-c2cnc3[nH]c4cnc(-c5cccnc5)cc4c3c2)c1
**A:** 0.1 to 1 µM

**Q:** Name the recorded IC50 of the item Cn1nccc1-c1c(F)cnc2[nH]c3cnc(-c4cccnc4)cc3c12 in your answer.
**A:** > 5 µM

**Q:** Complete the entry with IC50 for CCOC(=O)/C=C/c1c(F)cnc2[nH]c3cnc(-c4cccnc4)cc3c12
**A:** > 5 µM

**Q:** Return IC50 (reported value) for this molecule: Cn1cc(-c2cc3c(cn2)[nH]c2ncc(F)c(-c4ccc(NS(C)(=O)=O)cc4)c23)cn1
**A:** 0.001 to 0.1 µM
